- Tested on: ATP;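 further: ATP exposure 15 min at 22 °C before imaging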
- EXPERIMENT NOTES: switch fluorescence ratio, 500 uM ATP over buffer (Cy3 cluster intensity, sum of 5 cycles each) (fold (ratio)); higher = stronger signal-on switching upon ATP binding; sequences stand for … in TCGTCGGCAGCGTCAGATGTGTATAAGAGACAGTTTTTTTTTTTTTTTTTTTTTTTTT…TC
- CONDITION: aptamer strand: ATP DNA aptamer (quencher-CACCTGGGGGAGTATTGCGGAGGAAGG + anchor), 100 nM annealed; ATP concentration: 500 uM
switch fluorescence ratio values by entry
The answer should be written as a number, with no unit following it.

Below: 3 sequences and their reported switch fluorescence ratio.
AATGTTCAAA :: 0.995
TTGTAATTGC :: 1.29
TCGAGGGTCT :: 1.02

Provide measured switch fluorescence ratio value, entry: TTTTGATGCG
0.982

Provide measured switch fluorescence ratio value, entry: GAGATATACT
1.06

====

- Tested on: ATP;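 further: ATP exposure 15 min at 22 °C before imaging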
- EXPERIMENT NOTES: switch fluorescence ratio, 500 uM ATP over buffer (Cy3 cluster intensity, sum of 5 cycles each) (fold (ratio)); higher = stronger signal-on switching upon ATP binding; sequences stand for … in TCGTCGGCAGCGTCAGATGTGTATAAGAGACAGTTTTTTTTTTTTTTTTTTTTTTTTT…TC
- CONDITION: aptamer strand: ATP DNA aptamer (quencher-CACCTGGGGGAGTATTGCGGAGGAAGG + anchor), 100 nM annealed; ATP concentration: 500 uM
Where switch fluorescence ratio equals or exceeds 1, the correct label is condition met; where it does not, the label is condition not met.

CCAACAGGTT :: condition met

# bool: switch fluorescence ratio of ACCACAGAGC >= 1
condition met

# bool: switch fluorescence ratio of TTTGATAATT >= 1
condition met

# bool: switch fluorescence ratio of ATGGAGGCGG >= 1
condition met

====

- Test system: ATP;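 further: ATP exposure 15 min at 22 °C before imaging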
- EXPERIMENT NOTES: switch fluorescence ratio, 500 uM ATP over buffer (Cy3 cluster intensity, sum of 5 cycles each) (fold (ratio)); higher = stronger signal-on switching upon ATP binding; sequences stand for … in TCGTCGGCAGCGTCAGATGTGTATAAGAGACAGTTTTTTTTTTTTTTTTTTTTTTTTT…TC
- CONDITION: aptamer strand: ATP DNA aptamer (quencher-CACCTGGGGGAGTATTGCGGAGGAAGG + anchor), 100 nM annealed; ATP concentration: 500 uM
QUANTITY NAME: switch fluorescence ratio
The answer should be written as a number, with no unit following it.

Below: 3 sequences and their reported switch fluorescence ratio.
GGACGCTGTG :: 0.986
TTTTAACCCT :: 0.998
CTGCAACTAA :: 2.27

Quote ATP switch fluorescence ratio for entry TAAGAGACGA .
0.98

Quote ATP switch fluorescence ratio for entry AAAATCACGG .
1.14

Quote ATP switch fluorescence ratio for entry TTCTATACCG .
0.982

====

switch fluorescence ratio values by entry
- System: ATP;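 further: ATP exposure 15 min at 22 °C before imaging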
- EXPERIMENT NOTES: switch fluorescence ratio, 500 uM ATP over buffer (Cy3 cluster intensity, sum of 5 cycles each) (fold (ratio)); higher = stronger signal-on switching upon ATP binding; sequences stand for … in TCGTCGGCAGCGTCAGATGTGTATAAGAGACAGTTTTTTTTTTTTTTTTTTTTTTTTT…TC
- CONDITION: aptamer strand: ATP DNA aptamer (quencher-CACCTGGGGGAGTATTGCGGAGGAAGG + anchor), 100 nM annealed; ATP concentration: 500 uM
The answer should be written as a number, with no unit following it.

CTCAGCCATT :: 1.36
TGTGCTGGGT :: 1.02
AGGTAGGGTG :: 1.04
AGAGAGAGTT :: 0.974
GTGTTGTTGT :: 0.998
CAGTTTTTTC :: 1
TAGTGACAGC :: 1.04
TTGCTGTTAC :: 1.15
AACTAATCGC :: 1.03

Okay, next one:
Provide measured switch fluorescence ratio value, entry: TTAGGTACGG
1.04

====

- Test system: ATP;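 further: ATP exposure 15 min at 22 °C before imaging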
- EXPERIMENT NOTES: switch fluorescence ratio, 500 uM ATP over buffer (Cy3 cluster intensity, sum of 5 cycles each) (fold (ratio)); higher = stronger signal-on switching upon ATP binding; sequences stand for … in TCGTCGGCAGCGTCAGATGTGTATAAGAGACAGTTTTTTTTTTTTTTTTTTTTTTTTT…TC
- CONDITION: aptamer strand: ATP DNA aptamer (quencher-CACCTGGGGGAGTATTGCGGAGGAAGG + anchor), 100 nM annealed; ATP concentration: 500 uM
switch fluorescence ratio values by entry
The answer should be written as a number, with no unit following it.

CGAGATGGTT :: 0.973
TAGTTTTCTG :: 0.982
GTGGGTTGTT :: 0.972
TTGGTGGGGT :: 1

Provide measured switch fluorescence ratio value, entry: TAGGTGTTGG
1.02

Provide measured switch fluorescence ratio value, entry: AGGGGGGGGC
1.04

Provide measured switch fluorescence ratio value, entry: GGGTGCTTGG
1.02

Provide measured switch fluorescence ratio value, entry: CCTTTCGGGA
1.73

Provide measured switch fluorescence ratio value, entry: TATAAGCACG
1.1

Provide measured switch fluorescence ratio value, entry: ATAGGGTAAG
0.965

Provide measured switch fluorescence ratio value, entry: TTACTATGTT
0.999

Provide measured switch fluorescence ratio value, entry: GATGGGCACC
1.01

====

- Test system: ATP;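 further: ATP exposure 15 min at 22 °C before imaging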
- EXPERIMENT NOTES: switch fluorescence ratio, 500 uM ATP over buffer (Cy3 cluster intensity, sum of 5 cycles each) (fold (ratio)); higher = stronger signal-on switching upon ATP binding; sequences stand for … in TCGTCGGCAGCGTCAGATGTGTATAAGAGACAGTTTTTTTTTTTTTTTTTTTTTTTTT…TC
- CONDITION: aptamer strand: ATP DNA aptamer (quencher-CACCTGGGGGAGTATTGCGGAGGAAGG + anchor), 100 nM annealed; ATP concentration: 500 uM
switch fluorescence ratio values by entry
The answer should be written as a number, with no unit following it.

ATAAGGTGAG :: 0.998
GGGGAATGTA :: 0.971
AGCCTTAATT :: 1
TTCCTGCGCT :: 1.77
AAGCCCGGGG :: 1.02

Okay, next one:
Quote ATP switch fluorescence ratio for entry GCCCATGGGT .
1.07

====

- Test system: ATP;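 further: ATP exposure 15 min at 22 °C before imaging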
- EXPERIMENT NOTES: switch fluorescence ratio, 500 uM ATP over buffer (Cy3 cluster intensity, sum of 5 cycles each) (fold (ratio)); higher = stronger signal-on switching upon ATP binding; sequences stand for … in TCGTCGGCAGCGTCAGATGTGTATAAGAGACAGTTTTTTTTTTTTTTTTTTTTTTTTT…TC
- CONDITION: aptamer strand: ATP DNA aptamer (quencher-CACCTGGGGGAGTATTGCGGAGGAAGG + anchor), 100 nM annealed; ATP concentration: 500 uM
switch fluorescence ratio values by entry
The answer should be written as a number, with no unit following it.

CGGTTGTTTG :: 0.974
CGGGTTTGGG :: 0.983
CGTACCAACC :: 1.2
TAGTGATTGC :: 0.988

Provide measured switch fluorescence ratio value, entry: CTGTGTATGG
0.989

Provide measured switch fluorescence ratio value, entry: AGATATGGCT
0.979

Provide measured switch fluorescence ratio value, entry: GAGTGGGAGG
1.02

====

switch fluorescence ratio values by entry
- Tested on: ATP;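 further: ATP exposure 15 min at 22 °C before imaging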
- EXPERIMENT NOTES: switch fluorescence ratio, 500 uM ATP over buffer (Cy3 cluster intensity, sum of 5 cycles each) (fold (ratio)); higher = stronger signal-on switching upon ATP binding; sequences stand for … in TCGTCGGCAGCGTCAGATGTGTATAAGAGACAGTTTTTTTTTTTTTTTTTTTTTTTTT…TC
- CONDITION: aptamer strand: ATP DNA aptamer (quencher-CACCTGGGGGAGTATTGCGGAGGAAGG + anchor), 100 nM annealed; ATP concentration: 500 uM
The answer should be written as a number, with no unit following it.

GTTTTGTTAT :: 1.01

Provide measured switch fluorescence ratio value, entry: AAAAGGGGTG
1.09

====

- Test system: ATP;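 further: ATP exposure 15 min at 22 °C before imaging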
- EXPERIMENT NOTES: switch fluorescence ratio, 500 uM ATP over buffer (Cy3 cluster intensity, sum of 5 cycles each) (fold (ratio)); higher = stronger signal-on switching upon ATP binding; sequences stand for … in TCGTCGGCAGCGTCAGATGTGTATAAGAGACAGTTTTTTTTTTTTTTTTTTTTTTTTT…TC
- CONDITION: aptamer strand: ATP DNA aptamer (quencher-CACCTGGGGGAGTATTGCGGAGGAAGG + anchor), 100 nM annealed; ATP concentration: 500 uM
switch fluorescence ratio values by entry
The answer should be written as a number, with no unit following it.

Below: 3 sequences and their reported switch fluorescence ratio.
GGGGGATCGT :: 1.02
TTGGTTTAGA :: 0.979
GAAAGTGGTG :: 0.992

Quote ATP switch fluorescence ratio for entry CCGGATATGT .
1.08

Quote ATP switch fluorescence ratio for entry TCACTGGGTG .
1.23
